System: MS2 coat protein
experimental-details: apparent KD of MS2 coat protein; designed switch direction (-1 OFF switch, 1 ON switch): -1; higher = weaker reporter binding
applied-conditions: input ligand: FMN 200 uM
Mark TRUE for reported apparent KD of MS2 coat protein of 200 nM or greater; mark FALSE for anything smaller.

AAACGGCGGAUCGUGGCUUUUUGCUCGUCUUGUGCUUCGACAUGAGGAUCACCCAUGUGGUGGUGAUCCGUUGUAAA [Grok-var2-16 mod JAL] (Eterna round: R96, puzzle: Sensor v3, turn-off variant 2) = TRUE
ACUCGACAUGAGGAUCACCCAUGUGAGGAUAUGGCCUGUAUGGCGUGAGCUGGCUCAAUAAGAAGGCGCGUGGG [salish99_ex1_r4_051] (Eterna round: R97, puzzle: Exclusion 1) = TRUE
AAAGCUGCAGGAUAUGCAUGUGUGGACAUGAGGAUCACCCAUGUGAGCGUAUCAUGUCGAGCAGAAGGGCAGUAAA [Atquer] (Eterna round: R97, puzzle: Exclusion 5) = FALSE

Answer whether apparent KD of MS2 coat protein of GCAGCGUAUGUAGGAUAUCGGUCAGUUUCUGAUCGAGAAGGACAUGAGGAUCACCCAUGUGCGGUCAUGCGUGAGCAUGGCUGC [JL ENG1 3.74] (Eterna round: R96, puzzle: Exclusion NG 1) is greater than or equal to 200 nM.
TRUE

Answer whether apparent KD of MS2 coat protein of GAGAGAAUCUAGGAUAUAUCAAGAGAAGGAGAGAUAGAAGGAGAGACAUGAGGAUCACCCAUGUCUUCGUGUAG [Default title] (Eterna round: R97, puzzle: Exclusion 6) is greater than or equal to 200 nM.
FALSE

Answer whether apparent KD of MS2 coat protein of CUUUACAUGCUAAGAUCCUACAUGAGGAUCACCCAUGUGGUCCGGUGACGUGAGUCACCGGACUUAGCUCGUCUUGU [salish99_S_TOV1_R5_097] (Eterna round: R97, puzzle: Sensor, turn-off variant 1) is greater than or equal to 200 nM.
FALSE

Answer whether apparent KD of MS2 coat protein of CCCUGACAUGAGGAUCACCCAUGUUAGGAUAUAACAUUUGACGCGACAGUGUGGAGUGUUAGAAGGGAUAUGGG [-28.4, -26.7 kcal, A 28%] (Eterna round: R97, puzzle: Exclusion 1) is greater than or equal to 200 nM.
FALSE

Answer whether apparent KD of MS2 coat protein of AACUGGACAGGAUAUGUUCUUGAGCACUUGAGGAUCACCCAAGUCAUCAAGAACUCAGGCACAGAAGGGUUUAUGU [salish99_ex5_r4_002] (Eterna round: R97, puzzle: Exclusion 5) is greater than or equal to 200 nM.
FALSE

Answer whether apparent KD of MS2 coat protein of AAGUUACAUGAGGAUCACCCAUGUGAGGAUAUGAGUCAGUCACGGUGACGUGGCUGACUCAGAAGGCACAAAGG [JL-ex1-4.37 salish99 mod] (Eterna round: R97, puzzle: Exclusion 1) is greater than or equal to 200 nM.
TRUE
